Tested on: NCI-H522
Assay: NCI tumour cell line growth inhibition, 48 h
The source made the active and inactive calls. Rule as the data show it: active = GI50 up to about 1.1 µM and inactive = higher.
Just give me one of these, please: active, inactive

Worked examples follow.
S=C1NCCN1C(=S)Nc1ccccc1; inactive
CC(=O)NC1=C(C)C(=O)c2c(nc3n2CC[C@H]3OC(C)=O)C1=O; inactive

Qu. # outcome recorded in this test, key = `COC1(OC)C[C@H](C)[C@@]23O[C@]24C2=CC(=O)C=CC2=N[C@H]3C#C/C=C\C#C[C@]14O`
Ans. active

Qu. Could you please tell me the result logged for `Cc1ccc(S(=O)(=O)N/N=C2\C(=O)Nc3cc(O)c(C(=O)O)cc32)cc1` in this assay?
Ans. inactive

Qu. Fill in: this test's call for CC(=O)O[C@H]1C(=O)[C@]2(C)[C@@H](OC(=O)OCCC(O)CO)C[C@H]3OC[C@@]3(OC(C)=O)[C@H]2[C@H](OC(=O)c2ccccc2)[C@]2(O)C[C@H](OC(=O)[C@H](O)[C@@H](NC(=O)c3ccccc3)c3ccccc3)C(C)=C1C2(C)C (stereo partly specified) is ___
Ans. active

Qu. Short answer needed: outcome of this test for `O=C1CCCSC(=O)N1Cc1ccccc1` ?
Ans. inactive

Qu. I'd appreciate the recorded outcome for `C/C(CC(O)(C(F)(F)F)C(F)(F)F)=N\NC(N)=O` from this test.
Ans. inactive

Qu. Record request — test call for `CCc1[nH]c(=O)c2oc3cc4ccccc4cc3c2c1C(=O)O`
Ans. inactive

* * *

Tested on: SK-OV-3
Test: NCI tumour cell line growth inhibition, 48 h
Active and inactive are the calls of the source. No stated cut-off is given here; in the data, active = GI50 up to about 1.1 µM and inactive = higher.
Pick from active, inactive when you respond.

Consider the following illustrative entries.
CCOC(=O)c1csc(NC(=O)C(C)N2CCCC2)n1 (stereo not given); inactive
CN1CCC2(CC1)/C(=N/C1CCCCC1)NC(=S)N2c1ccccc1; inactive

Qu. Check the results log: what was the call for C=C(Br)C(C)(Cl)CCC(Br)C(C)(C)Cl (stereo not given) ?
Ans. inactive

Qu. Short answer needed: outcome of this test for `O=C(NN=C1NCCCCN1)Nc1ccc(Cl)cc1` ?
Ans. inactive

Qu. Per the records of this test, what outcome belongs to Nc1ccc(C2NC(=O)Cc3c2ccc2ccccc32)cc1 (stereo not given) ?
Ans. inactive

Qu. How did this test come out for CC(NNC(=O)c1ccncc1)c1ccccc1 (stereo not given) ?
Ans. inactive

* * *

# key: entry, value: GI50
Tested on: UO-31
Assay: NCI tumour cell line growth inhibition, 48 h
The source made the active and inactive calls. No stated cut-off is given here; in the data, active = GI50 up to about 1.1 µM and inactive = higher.

CC(=O)Oc1ccc(O)c(O)c1C/C=C(\C)CC/C=C(\C)CC/C=C(\C)CCC=C(C)C; 1.42 µM (inactive)
C=C(Br)C(C)(Cl)CCC(Br)C(C)(C)Cl (stereo not given); > 100 µM (inactive)
C1CCNCC1.Oc1ncnc2[nH]cc(CN3CCCCC3)c12; 85.3 µM (inactive)
C=C1c2nc3ccccc3n2C=C(c2ccc(OC)cc2)N1c1ccc(OCCN2CCOCC2)cc1; 24.7 µM (inactive)

Switching to the query record.
Entry `CSc1nc(NCc2ccccc2)c2cnn(COCCO)c2n1` , UO-31 data, GI50 value: 35.9 µM (inactive)

* * *

GI50 for assorted compounds
Test system: HL-60
Experiment: NCI tumour cell line growth inhibition, 48 h
Active and inactive are the calls of the source. Cut-off read from the data, not from the text of the source: active = GI50 up to about 1.1 µM and inactive = higher.

Form: compound = `O=S1(=O)N=C(SCc2c[nH]c3ccccc23)N(c2ccccc2)c2ccncc21` ; GI50 = > 100 µM (inactive)

Form: compound = CC(=O)OC12CCCCC1C1(CCCC1)NC2=O (stereo not given) ; GI50 = > 100 µM (inactive)

For record `O=S(=O)(N/C(=N\O)Nc1ccc(Cl)cc1)c1cc2ccccc2o1` the listed GI50 is 15.3 µM (inactive)

Measured GI50 of C=C1C(=O)OC2C1C(OC(=O)/C(C)=C/C)CC(O)(CCl)C1C(OC(C)=O)C=C(C)C21O (stereo not given) : 1.89 µM (inactive)

The compound identified as `CSc1nc2cc(S(=O)(=O)N3CCCCC3)ccc2s1` registered its GI50 at > 100 µM (inactive)

Reported GI50 for COC(=O)c1c2c(cc3c1CC1(Cc4cc5c(c(C(C)=O)c4C1)CCCC5)C3)CCCC2 (stereo not given) was 12.6 µM (inactive)

* * *

System: COLO 205
Test: NCI tumour cell line growth inhibition, 48 h
Calls of active or inactive are those of the source. Cut-off read from the data, not from the text of the source: active = GI50 up to about 1.1 µM and inactive = higher.
// reported GI50 for each item listed

CCOc1cc(C2CC(c3ccc(NS(=O)(=O)c4cc([N+](=O)[O-])ccc4C)cc3)=NN2)ccc1O (stereo unspecified); 22.3 µM (inactive)
N#CC1CCCCOCCOCCOCCOCCOCCCCCC1=O (stereo unspecified); > 100 µM (inactive)
O=C1c2cc(O)c(O)cc2O[C@H](c2ccc(O)c(O)c2)[C@H]1O; > 100 µM (inactive)
Nc1nc(O)c2ncn(C3OC(CO)C(O)C3O)c2n1 (stereo unspecified); 57 µM (inactive)
CCOC(=O)C1(C#N)C(C#N)(C#N)C1(C#N)C#N; > 100 µM (inactive)

# ---- query molecule ----
For record NC(CSSCC(N)Cc1ccccc1)Cc1ccccc1 (stereo unspecified) the listed GI50 is 32.7 µM (inactive)

* * *

Test system: SNB-75
Assay: NCI tumour cell line growth inhibition, 48 h
Calls of active or inactive are those of the source. Cut-off read from the data, not from the text of the source: active = GI50 up to about 1.1 µM and inactive = higher.
Measured GI50 by item

Worked examples follow.
C/C(CN1C(=O)c2ccccc2C1=O)=N\NS(=O)(=O)c1ccc(Cl)cc1; > 100 µM (inactive)
O=C(O)CSc1nc2ccccc2[nH]1; > 100 µM (inactive)
O=C(CCN1CCN2c3ccccc3CCC2C1)c1ccc(F)cc1 (configuration not stated); 27.2 µM (inactive)

// molecule `NS(=O)(=O)c1ccc(NC(=O)c2cccc3c(=O)c4ccccc4[nH]c23)cc1` , assay SNB-75, GI50 value: 15.3 µM (inactive)

Entry `Cc1ccccc1-n1c2nc(=O)n(C)c(=O)c-2nc2ccccc21` , SNB-75 data, GI50 value: 20.1 µM (inactive)

SNB-75 GI50 of CCOC(=O)c1csc(NC(=O)C(C)N2CCCC2)n1 (configuration not stated) is > 100 µM (inactive)

Lab note: molecule `Cc1cc2nc3ccccc3n2c2nc(N)ccc12` tested on SNB-75; recorded GI50 was > 100 µM (inactive)

// returns GI50 for `CC1=CC(=O)c2cccc(NC3=NCCO3)c21` with SNB-75; value = 52.6 µM (inactive)

* * *

HCT-15 GI50 data

Consider the reported GI50 for these compounds:
Cc1ccc(S(=O)(=O)N/N=C2\C(=O)Nc3cc(O)c(C(=O)O)cc32)cc1; > 100 µM
COc1ccc(CSC2=C(C#N)C(=O)NC3(CCCCC3)S2)cc1; 57.8 µM
C=C1C[C@]23CC[C@@H]4C(CO)(CO)CC(=O)C[C@]4(C)[C@@H]2CC[C@H]1C3; > 100 µM
C=COC(=O)N1C2CCCC(Cl)(C(C)=O)C1CC2 (stereo not drawn); > 100 µM
Brc1nc2c3ccccc3ncn2c1Br; 35.3 µM
CC1=CC(=O)c2cccc(NC3=NCCO3)c21; 49.4 µM

The observed GI50 for `O=C(O)CSc1nc2ccccc2[nH]1` when tested with HCT-15 stands at > 100 µM

Noted GI50 for O=C1CC(c2c[nH]c3ccccc23)C(=O)N1 (stereo not drawn) , tested on HCT-15: > 100 µM

Record CCOC(=O)CNC(=O)C(C)NC(=O)C(NC(=O)CC(c1ncc[nH]1)c1ncc[nH]1)C(C)CC (stereo not drawn) ; system HCT-15; GI50 = > 100 µM

* * *

Tested on: SNB-75
Experiment: NCI tumour cell line growth inhibition, 48 h
Calls of active or inactive are those of the source. Rule as the data show it: active = GI50 up to about 1.1 µM and inactive = higher.
One label from this list, please: 1 = active, 0 = inactive

Study these solved cases before continuing.
N#CC1CCCCOCCOCCOCCOCCOCCCCCC1=O (configuration not stated); 0
O=c1cc(-c2ccccc2)nc2[nH]ccn12; 0
COc1ccc(CSC2=C(C#N)C(=O)NC3(CCCCC3)S2)cc1; 0

Qu. Identify the outcome logged in this assay for the compound shown: `O=C1C2CCN(CC2)C1(CO)CO`
Ans. 0

Qu. Any idea what this test logged for `Cc1nc2ccc(S(=O)(=O)NS(=O)(=O)c3ccc(-c4ccccc4)cc3)cc2c(=O)n1NS(=O)(=O)c1ccc(-c2ccccc2)cc1` ?
Ans. 0

Qu. What outcome does the record of this test show for `O=C1CCCSC(=O)N1Cc1ccccc1` ?
Ans. 1

Qu. Could you please tell me the result logged for `Cc1ccc(/C(=C\C(=O)C(=O)NC23CC4CC(CC(C4)C2)C3)Sc2ccccc2)cc1` in this assay?
Ans. 0

Qu. Tell me the assay call for `O=C(c1ccc2ccccc2c1O)N1CCCCC1` please.
Ans. 0

* * *

Documented GI50 across a set of compounds
Tested on: NCI/ADR-RES
Experiment: NCI tumour cell line growth inhibition, 48 h
Activity calls are given as the source filed them. No stated cut-off is given here; in the data, active = GI50 up to about 1.1 µM and inactive = higher.

Example cases with answers are listed next.
CC1=CC(=O)c2cccc(NC3=NCCO3)c21; 29.5 µM (inactive)
COc1ccc(-c2c(-c3ccccc3)c(C)nc3[nH]c(=S)[nH]c(=S)c23)cc1OC; 40.4 µM (inactive)

Kindly note the recorded GI50 for O=S(=O)(O)C(CO)c1ccccc1.O=S(=O)(O)Cc1ccccc1 (stereo unspecified) , which is > 100 µM (inactive)

Field GI50 (entry `Cc1ccc(/C(=C\C(=O)C(=O)NC23CC4CC(CC(C4)C2)C3)Sc2ccccc2)cc1` ) reads > 10 µM (inactive)

# GI50 of CC1=NNC(=O)C1C1CC(c2c[nH]c3ccccc23)=NNC1=S (stereo unspecified) = > 100 µM (inactive)

Entry `N=C(N)SCCc1ccncc1` — recorded GI50 = > 100 µM (inactive)
